Consider the following IC50 values measured on UniProt:Q9Y2R2.
Numbers only, in µM.

1) O=C(O)COc1ccc(-c2oc3cc(O)c(C(=O)O)cc3c2C#Cc2cccc(Cl)c2)cc1 : 7.8

// switching to the query molecule
Would you kindly share the measured IC50 for CC(C)c1ccc(NC(=O)COc2cccc(-c3oc4cc(O)c(C(=O)O)cc4c3C#Cc3cccc(Cl)c3)c2)cc1 ? 0.3

----------
- assayed_target: Tyrosine-protein phosphatase non-receptor type 22 (Homo sapiens, UniProt Q9Y2R2)
- Sequence (Q9Y2R2 whole entry): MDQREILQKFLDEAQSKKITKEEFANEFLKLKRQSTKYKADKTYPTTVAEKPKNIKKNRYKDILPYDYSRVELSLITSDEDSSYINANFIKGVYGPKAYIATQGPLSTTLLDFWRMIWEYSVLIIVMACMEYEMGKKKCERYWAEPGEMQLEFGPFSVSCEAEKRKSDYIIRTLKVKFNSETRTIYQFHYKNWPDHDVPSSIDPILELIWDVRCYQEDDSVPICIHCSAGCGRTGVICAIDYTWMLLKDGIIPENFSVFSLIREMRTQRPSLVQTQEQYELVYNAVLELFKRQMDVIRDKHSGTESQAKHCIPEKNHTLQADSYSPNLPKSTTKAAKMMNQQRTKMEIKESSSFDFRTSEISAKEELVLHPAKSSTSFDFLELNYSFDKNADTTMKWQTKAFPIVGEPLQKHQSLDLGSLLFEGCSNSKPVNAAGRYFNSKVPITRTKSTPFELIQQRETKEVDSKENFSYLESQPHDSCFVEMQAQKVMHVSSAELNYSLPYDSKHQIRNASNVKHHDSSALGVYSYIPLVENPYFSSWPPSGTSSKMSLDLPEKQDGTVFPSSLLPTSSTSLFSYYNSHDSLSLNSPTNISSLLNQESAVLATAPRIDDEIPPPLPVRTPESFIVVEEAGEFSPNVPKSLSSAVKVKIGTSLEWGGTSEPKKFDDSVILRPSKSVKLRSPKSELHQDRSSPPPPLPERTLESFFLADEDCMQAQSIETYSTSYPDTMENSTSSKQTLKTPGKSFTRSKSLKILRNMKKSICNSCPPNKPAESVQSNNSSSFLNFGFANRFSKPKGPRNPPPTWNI
measurement_label: pIC50
Give bare numbers, as −log10 of the molar value.

Any idea what its pIC50 is? The compound is CC(C)c1ccc(NC(=O)COc2cccc(-c3oc4cc(O)c(C(=O)O)cc4c3C#Cc3cccc(Cl)c3)c2)cc1 6.52
